test: recombinant UMI read abundance after kanamycin selection (control-corrected) (log10(CPM+1)); higher = more efficient recombination; extreme values may be limits of the assay; sequences stand for … in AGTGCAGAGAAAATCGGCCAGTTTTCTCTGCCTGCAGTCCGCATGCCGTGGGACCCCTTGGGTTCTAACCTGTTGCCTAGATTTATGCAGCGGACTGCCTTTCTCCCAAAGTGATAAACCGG…AGGTTGGTTTCACT; site = the 11-nt donor;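 further: IS621 bridge recombinase in Escherichia coli cells against a fixed T5 target plasmid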
Readout Kind: recombinant UMI read abundance (log10)
Reply with the value as a number alone.

Residue Codes	recombinant UMI read abundance (log10)
GGGTGTTCATGGACCGGTTTTCCCGGTAATCCGTATTTGTT (site GGGTGTTCTAA)	1.1
GCTACTGCATGGACCGGTTTTCCCGGTAATCCGTATTTGCG (site GCTACTGCTTG)	1.35
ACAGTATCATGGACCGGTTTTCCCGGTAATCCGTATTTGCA (site ACACTTTCTTG)	0
CCCTAGACATGGACCGGTTTTCCCGGTAATCCGTATTTGGG (site ACCTAGACTCC)	0.036

Query: Note recombinant UMI read abundance (log10) for the sequence shown: GCATAGACATGGACCGGTTTTCCCGGTAATCCGTATTTGCC (site GCATAGACTGG)
Reply: 1.74
